Tested on: murine melanoma, B 16
Protocol Details: Cytotoxicity, Microculture Tetrazolium Assay, B 16
Format: cell-based
Setup Conditions: Mus musculus, 96 h, read-out: IC50 (cytotoxicity)
Description: Three cell lines were used: The cells are distributed on microplates and exposed to the cytotoxic compounds.
Measure: pIC50
// scale note: pIC50 = -log10(conc_M); give the bare number

Prompt: Dear colleague, please send me the reported pIC50 for COc1cccc2c1C(=O)c1c(O)c3c(c(O)c1C2=O)C[C@@](O)(C(=O)CO)C[C@@H]3O[C@H]1C[C@H](N)[C@H](O)[C@H](C)O1 [Reference B, adriamycin, reference compound] when you can.
Response: 8.17
